Tested on: HDQ-P1
Test: drug sensitivity score (DSS), CellTox Green (DSS (AUC-based score)); higher = stronger drug effect (viability inhibition or cytotoxicity); extreme values may be limits of the assay
Details: incubation time: 72 h

{"columns": ["molecule", "drug sensitivity score"],
 "data": [
  ["CCN(CC)CCCC(C)Nc1ccnc2cc(Cl)ccc12 (centres undefined)", 5.48],
  ["Nc1ccn([C@@H]2O[C@H](CO)[C@@H](O)C2(F)F)c(=O)n1", 0],
  ["CC1(C)CCC(c2ccc(Cl)cc2)=C(CN2CCN(c3ccc(C(=O)NS(=O)(=O)c4ccc(N[C@H](CCN5CCOCC5)CSc5ccccc5)c(S(=O)(=O)C(F)(F)F)c4)cc3)CC2)C1", 17.2],
  ["COc1ccc(S(=O)(=O)Nc2cccnc2Nc2ccc(O)cc2)cc1", 0],
  ["COc1cc(Nc2c(C#N)cnc3cc(OCCCN4CCN(C)CC4)c(OC)cc23)c(Cl)cc1Cl", 3.06],
  ["C=CCN(/C=C1/C(=O)O[C@H](COC)[C@@]2(C)C1=C(O)C(=O)C1=C2[C@H](OC(C)=O)C[C@]2(C)C(=O)CC[C@@H]12)CC=C", 0],
  ["CN(Cc1cnc2nc(N)nc(N)c2n1)c1ccc(C(=O)N[C@@H](CCC(=O)O)C(=O)O)cc1 [Methotrexate]", 0],
  ["CC(C)(C)NC(=O)[C@H]1CC[C@H]2[C@@H]3CC[C@H]4NC(=O)C=C[C@]4(C)[C@H]3CC[C@]12C [Finasteride]", 0],
  ["CNC(=O)c1ccccc1Sc1ccc2c(/C=C/c3ccccn3)n[nH]c2c1", 0]
]}

The origin of these recorded values is the supplement of paper PMC4862054.
